Exercise: state measured protein stability index for each of the sequences provided.
Test system: Saccharomyces cerevisiae
Measurement description: protein stability index of tFT-peptide fusion (C-terminal peptide) (PSI (0-1 scale)); higher = more stable (slower turnover)
Measurement parameters: genetic background: cdc34-1; temperature: 37 C

Query: Which protein stability index is listed for FVWWFFFLSVVS ?
Result: 0.277

Query: Ok, now MRVYLVLWADSC
Result: 0.236

Query: Ok, now GLPRRFLLLSVV
Result: 0.328

Query: Ok, now RLFIIYLLNIQG
Result: 0.37

----------
Test system: Saccharomyces cerevisiae
Measurement description: protein stability index of tFT-peptide fusion (C-terminal peptide) (PSI (0-1 scale)); higher = more stable (slower turnover)
Measurement parameters: genetic background: wild type; temperature: 30 C
Exercise: state measured protein stability index for each of the sequences provided.
Note: the reply should be a number with no unit written.

Query: Which protein stability index is listed for FPRPHPTPLPPG ?
Result: 0.689

Query: Ok, now APAPELRRSPTP
Result: 0.707

Query: Ok, now YRLCEARVQSDN
Result: 0.685

Query: Ok, now PLASPRIYAQHL
Result: 0.697

Query: Ok, now LVRMCLFNMHFS
Result: 0.698

Query: Ok, now QKDTGKETTYRA
Result: 0.681

Query: Ok, now SHPWLLDCVTTF
Result: 0.706

Query: Ok, now PPARRPVPPLSC
Result: 0.719

Query: Ok, now ARPCPRPHVPST
Result: 0.706

Query: Ok, now VPSSVLIPRPLF
Result: 0.72

Query: Ok, now VASGTLGWWVSA
Result: 0.712

Query: Ok, now PHLFDPLVPASF
Result: 0.682

Query: Ok, now TPSPLAILSSTC
Result: 0.689

Query: Ok, now GENTRKNNVVGE
Result: 0.69

Query: Ok, now PLPGLLHCPTSP
Result: 0.717

Query: Ok, now SLPSRPLSFYSP
Result: 0.715

Query: Ok, now QKKKKKNTKKKL
Result: 0.701

Query: Ok, now ISSTGYQARHRG
Result: 0.688

Query: Ok, now RINKKRETNQGK
Result: 0.685

Query: Ok, now LLSLATPHPSAL
Result: 0.714

Query: Ok, now LLRLMSPTPFTP
Result: 0.703

Query: Ok, now RIQMSGHTNLVG
Result: 0.686

Query: Ok, now ENRERVVENLRD
Result: 0.715

Query: Ok, now LGYSYHGVASRG
Result: 0.698

Query: Ok, now CPLPIKANLSFP
Result: 0.705

Query: Ok, now CVGVEDFFFACF
Result: 0.703

Query: Ok, now DLMLSVDLNIDG
Result: 0.699

Query: Ok, now SAHPFKSCPIGR
Result: 0.682

Query: Ok, now KIGNQLQELRRI
Result: 0.696

Query: Ok, now SSVNYPSFPPLA
Result: 0.706

----------
Test system: Saccharomyces cerevisiae
Measurement description: protein stability index of tFT-peptide fusion (C-terminal peptide) (PSI (0-1 scale)); higher = more stable (slower turnover)
Measurement parameters: genetic background: wild type; temperature: 30 C
Assay endpoint: protein stability index
Note: the reply should be a number with no unit written.

Query: Kindly state the measured protein stability index obtained for YDAGWVDVLLVI with Saccharomyces cerevisiae.
Result: 0.642

Query: Ok, now YVSSFSLVVLLS
Result: 0.228

Query: Ok, now RERGVSVKLGGG
Result: 0.677

Query: Ok, now GKPTPRRPEKDG
Result: 0.61

Query: Ok, now VCKGGRIEYGLQ
Result: 0.666

Query: Ok, now LFGFSPAPVSFG
Result: 0.733

Query: Ok, now PPPPRPPRPPPA
Result: 0.671

Query: Ok, now ALLWEFVPCSVR
Result: 0.453

Query: Ok, now GPVGPGECYDYT
Result: 0.706

Query: Ok, now MGAVGGLCGMWA
Result: 0.711

----------
Tested on: Saccharomyces cerevisiae
Measurement description: protein stability index of tFT-peptide fusion (C-terminal peptide) (PSI (0-1 scale)); higher = more stable (slower turnover)
Measurement parameters: genetic background: wild type; temperature: 30 C
Assay endpoint: protein stability index
Note: the reply should be a number with no unit written.

Query: Which protein stability index is listed for PLPPCCLPPSAF ?
Result: 0.686

Query: Ok, now PSPPPRRPPAPP
Result: 0.666

Query: Ok, now PPDLSWPPAPLP
Result: 0.824

Query: Ok, now KKKRKEEIKKKK
Result: 0.742

Query: Ok, now VTPLPHPPLPPP
Result: 0.756

----------
Test system: Saccharomyces cerevisiae
Measurement description: protein stability index of tFT-peptide fusion in deletion strain of DOA10 (PSI (0-1 scale)); higher = more stable (slower turnover)
Exercise: state measured protein stability index for each of the sequences provided.
Note: the reply should be a number with no unit written.

Query: Which protein stability index is listed for RVSRLDAIYFRI ?
Result: 0.671

Query: Ok, now GLYMCSVGCWWR
Result: 0.634

Query: Ok, now RVTRLDAIFFRI
Result: 0.712

Query: Ok, now KSLRVLLPLYFR
Result: 0.654

Query: Ok, now RSLRVDLPLYFR
Result: 0.69

Query: Ok, now CLVSLPILLFDR
Result: 0.65

Query: Ok, now CLVHLPILLFFR
Result: 0.56

Query: Ok, now AITLPMCPLLLRH
Result: 0.646

Query: Ok, now AITLPACPLLLR
Result: 0.657

Query: Ok, now AITLPMRPLLLR
Result: 0.637

Query: Ok, now CLVSLQILLFFR
Result: 0.264

Query: Ok, now AITLPMCPRLLR
Result: 0.675

Query: Ok, now AITLPMDPLLLR
Result: 0.681

Query: Ok, now GLYMCSVGCWFRK
Result: 0.648

Query: Ok, now AITLPMCPCLLR
Result: 0.651

Query: Ok, now RVTRLDAIYARI
Result: 0.724

Query: Ok, now RSLRVLLPLYHR
Result: 0.682

Query: Ok, now ISLRVLLPLYFR
Result: 0.588

Query: Ok, now RVTFLDAIYFRI
Result: 0.621

Query: Ok, now AITYPMCPLLLR
Result: 0.655

Query: Ok, now RSLRVLLPLYSR
Result: 0.642

Query: Ok, now CLVSLPILLFFY
Result: 0.435

Query: Ok, now RRTRLDAIYFRI
Result: 0.599

----------
Exercise: state measured protein stability index for each of the sequences provided.
Tested on: Saccharomyces cerevisiae
Measurement description: protein stability index of tFT-peptide fusion (C-terminal peptide) (PSI (0-1 scale)); higher = more stable (slower turnover)
Measurement parameters: genetic background: wild type; temperature: 30 C
Note: the reply should be a number with no unit written.

Query: Which protein stability index is listed for ESRDRRVGIANW ?
Result: 0.725

Query: Ok, now EGDGAVGKTRGD
Result: 0.691

Query: Ok, now WEWFKWRDHNRY
Result: 0.803

Query: Ok, now SPAFSLIPCPLF
Result: 0.742

Query: Ok, now RQKAQESNTQPP
Result: 0.73

Query: Ok, now SPGRVSRGNASV
Result: 0.645

Query: Ok, now VCGGRQVGWGGW
Result: 0.684

Query: Ok, now VSRGIFSGRGGV
Result: 0.736

Query: Ok, now WKGEMRDDGGRR
Result: 0.687

Query: Ok, now AVCVVVMAVFVG
Result: 0.365

Query: Ok, now LCGGEWVVWVKG
Result: 0.342

Query: Ok, now HPPPPSPPSPLP
Result: 0.724

Query: Ok, now VASGLVLFSGGV
Result: 0.655

Query: Ok, now SGGRSPYLLVGL
Result: 0.725

Query: Ok, now CWRDTSSPSVLD
Result: 0.682

Query: Ok, now LSPPRSPPSRPP
Result: 0.645

Query: Ok, now SMGVLITYLVQV
Result: 0.45

Query: Ok, now LPSPSPPPPLLP
Result: 0.743

Query: Ok, now FVRCFWPFVFVF
Result: 0.203

Query: Ok, now RPLWVDGPHPSR
Result: 0.666

Query: Ok, now PYSFDTNFVLIS
Result: 0.643

Query: Ok, now WIFHHSKTTLAP
Result: 0.716

Query: Ok, now GGAVSRVGEWGR
Result: 0.788

Query: Ok, now EACVAAMTPKSL
Result: 0.657

Query: Ok, now GAEKEPEPRRLA
Result: 0.699

Query: Ok, now RGEVQPRRDPGA
Result: 0.662

Query: Ok, now KYKANLGNLKVH
Result: 0.135

Query: Ok, now RRREGTVPWYIS
Result: 0.605

Query: Ok, now GLYVDRTVEVGG
Result: 0.623

Query: Ok, now WGWGGVRGGMGG
Result: 0.796

Query: Ok, now CFGSALLKCWLC
Result: 0.406

Query: Ok, now VPFGPLRPALYL
Result: 0.708

Query: Ok, now RVSAPPSFHGSF
Result: 0.722

Query: Ok, now EVRRGVGGAWEG
Result: 0.648

Query: Ok, now YPSTESPAGLAL
Result: 0.726

Query: Ok, now WKKDTKTKKKKN
Result: 0.695

Query: Ok, now VLGRRGLVWKRV
Result: 0.599

Query: Ok, now SMLLFFLPSSSS
Result: 0.641

Query: Ok, now PPFPPPPPPSPS
Result: 0.751

Query: Ok, now KNSKKKKLKIER
Result: 0.804

Query: Ok, now MLGLHSDTRRSR
Result: 0.673

Query: Ok, now GLSCESLRLFFR
Result: 0.702

Query: Ok, now FPPVVSSLPPPS
Result: 0.686

Query: Ok, now PLPPCPPTPCPS
Result: 0.648

Query: Ok, now RVSGYTHPLLSC
Result: 0.679

Query: Ok, now LLHFSSPPLLPV
Result: 0.634

Query: Ok, now SPFPFLLTAPLA
Result: 0.538

Query: Ok, now KEENKKKKKKRI
Result: 0.755

Query: Ok, now SPGPPLLLPPPL
Result: 0.688

Query: Ok, now LSPPPSLSSRPP
Result: 0.706

Query: Ok, now GQTTVLPSIYKR
Result: 0.673

Query: Ok, now YARFWYSKAFIC
Result: 0.2

Query: Ok, now AFPHDYCRFFLP
Result: 0.612

Query: Ok, now PPPASPLPPASP
Result: 0.667

Query: Ok, now FAQRRGPAALNI
Result: 0.705

Query: Ok, now QGDPTCLKGINE
Result: 0.669

Query: Ok, now YHALNSLHPPSP
Result: 0.69

Query: Ok, now FRSGRLSPPAPS
Result: 0.692

Query: Ok, now ADMTRSRYMGRS
Result: 0.692

Query: Ok, now SHSPAPSFPYFP
Result: 0.737

Query: Ok, now AHPPPPQLPHPH
Result: 0.724

Query: Ok, now SWKEAIVAISGS
Result: 0.612

Query: Ok, now PCPIGGRPCRVG
Result: 0.728

Query: Ok, now TTRPTRGRPSSG
Result: 0.682

Query: Ok, now YVTPALRPTSSR
Result: 0.728

Query: Ok, now NGRNKKRKCLQT
Result: 0.706

Query: Ok, now WSFGRWGGAGAR
Result: 0.629

Query: Ok, now KMYILKGKIRKI
Result: 0.612

Query: Ok, now FDFFLPFLCSSL
Result: 0.827
